Test: Acute oral toxicity in mice
Conditions: mouse, in vivo, mice (NRMI)
assay metric: LD50

>>> measured_value("OCC(CO)N[C@H]1C[C@](O)(CO)[C@@H](O)[C@H](O)[C@H]1O [AO-128, N-(1,3-dihydroxy-2-propyl)valiolamine]")
"14700 to 21500 mg/kg"

---

Assay: Acute oral toxicity in rats
Settings: rat, in vivo, rats (Wistar)
assay metric: LD50

>>> measured_value("OCC(CO)N[C@H]1C[C@](O)(CO)[C@@H](O)[C@H](O)[C@H]1O [AO-128, N-(1,3-dihydroxy-2-propyl)valiolamine]")
"~20000 mg/kg"
